Here, each record is paired with measured IC50 data.
# MEASURED ON: Protein skinhead-1 (Caenorhabditis elegans, UniProt P34707)
# Sequence (P34707 whole entry): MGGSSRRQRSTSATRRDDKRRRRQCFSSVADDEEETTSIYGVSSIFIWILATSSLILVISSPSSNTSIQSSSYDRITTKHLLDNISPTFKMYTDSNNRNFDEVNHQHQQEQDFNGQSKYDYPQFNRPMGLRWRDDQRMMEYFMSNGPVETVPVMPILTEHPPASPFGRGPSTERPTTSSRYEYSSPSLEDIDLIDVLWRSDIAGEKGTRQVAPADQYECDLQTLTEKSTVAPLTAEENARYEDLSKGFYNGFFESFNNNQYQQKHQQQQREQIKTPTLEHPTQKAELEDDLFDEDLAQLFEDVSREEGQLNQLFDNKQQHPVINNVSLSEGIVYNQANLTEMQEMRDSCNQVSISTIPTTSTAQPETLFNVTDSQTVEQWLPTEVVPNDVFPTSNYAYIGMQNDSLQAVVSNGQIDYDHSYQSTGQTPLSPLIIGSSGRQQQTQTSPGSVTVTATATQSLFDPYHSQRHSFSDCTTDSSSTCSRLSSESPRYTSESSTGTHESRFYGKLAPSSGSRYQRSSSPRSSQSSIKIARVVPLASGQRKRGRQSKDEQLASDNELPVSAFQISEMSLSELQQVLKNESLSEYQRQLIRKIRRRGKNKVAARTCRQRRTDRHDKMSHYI
# Assay type: functional
Calls of active or inactive are those of the source.
OUTCOME MEASURE: IC50

- COMPOUND: "C(=C1c2ccccc2-c2ccccc21)c1ccccn1"
  OUTCOME MEASURE: "IC50"
  RESULT: "59.4 µM (inactive)"
- COMPOUND: "COc1ccc(S(=O)(=O)n2ccc(-c3ccc(OCCN(C)c4ccccn4)cc3)n2)cc1"
  OUTCOME MEASURE: "IC50"
  RESULT: "> 100 µM (inactive)"
- COMPOUND: "Clc1ccc2oc(-c3ccccn3)nc2c1"
  OUTCOME MEASURE: "IC50"
  RESULT: "35.9 µM (active)"
- COMPOUND: "Cc1ccc(-c2nc(=S)c3c(n2CCN2CCOCC2)CC(C)(C)OC3)cc1"
  OUTCOME MEASURE: "IC50"
  RESULT: "> 100 µM (inactive)"
- COMPOUND: "O=[N+]([O-])c1cc(CN2CCCC2)ccc1Sc1ccc(Cl)cc1"
  OUTCOME MEASURE: "IC50"
  RESULT: "17.9 µM (active)"
- COMPOUND: "CCN1CCN(c2cc(C)c3cc(NC(=S)N4CCCCC4)ccc3n2)CC1"
  OUTCOME MEASURE: "IC50"
  RESULT: "> 100 µM (inactive)"
- COMPOUND: "FC(F)(F)c1cc(-c2ccccc2)nc(NC2CCCC2)n1"
  OUTCOME MEASURE: "IC50"
  RESULT: "> 100 µM (inactive)"
- COMPOUND: "CCCNc1c(F)c(F)c2c(C)c3ccccc3nc2c1F"
  OUTCOME MEASURE: "IC50"
  RESULT: "> 100 µM (inactive)"
- COMPOUND: "CC1CCN(C(C)C(=O)Nc2ccccc2-c2ccccc2)CC1 (stereo unspecified)"
  OUTCOME MEASURE: "IC50"
  RESULT: "> 100 µM (inactive)"
- COMPOUND: "O=C(Nc1ccccc1F)C1CCCC1"
  OUTCOME MEASURE: "IC50"
  RESULT: "> 100 µM (inactive)"
- COMPOUND: "O=C(CN1CCN(S(=O)(=O)c2ccc(Br)cc2)CC1)Nc1ccc2c(c1)OCO2"
  OUTCOME MEASURE: "IC50"
  RESULT: "> 100 µM (inactive)"

###

# MEASURED ON: Cytochrome P450 2C19 (Homo sapiens)
# PROCEDURE TEXT: Cytochrome panel assay with activity outcomes. Panel member name: p450-cyp2c19 Compounds with AC50 equal or less than 10 uM are considered active
# Assay type: functional
# MEASUREMENT PARAMETERS: read-out: AC50
Here, each record is paired with measured AC50 data.

- MOLECULE: "Cc1cccc(OCCCC(=O)Nc2ccc(N3CCCCC3)cc2)c1"
  AC50: "0.355 µM (inconclusive)"
- MOLECULE: "C=C(C)CN1CC[C@@]23c4c5ccc(O)c4O[C@H]2c2[nH]c4ccccc4c2C[C@]3(O)[C@@H]1C5"
  AC50: "3.16 µM (inconclusive)"
- MOLECULE: "CCOC(=O)C1CN(S(=O)(=O)c2cccc(C(F)(F)F)c2)c2cc(CC(=O)OC)ccc2O1 (stereo not given)"
  AC50: "0.282 µM (inconclusive)"
- MOLECULE: "CCc1c(O)n(-c2ccccc2)c(SCC(=O)NC(C)(C)C)nc1=O"
  AC50: "35.5 µM (inconclusive)"
- MOLECULE: "CC1(C)CCC(C)(C)c2cc(C(=O)Nc3ccc(C(=O)O)cc3)ccc21"
  AC50: "31.6 µM (inconclusive)"

###

# MEASURED ON: Peroxisome proliferator-activated receptor gamma/Nuclear receptor coactivator 2 (Homo sapiens, UniProt P37231)
# Sequence (P37231 whole entry): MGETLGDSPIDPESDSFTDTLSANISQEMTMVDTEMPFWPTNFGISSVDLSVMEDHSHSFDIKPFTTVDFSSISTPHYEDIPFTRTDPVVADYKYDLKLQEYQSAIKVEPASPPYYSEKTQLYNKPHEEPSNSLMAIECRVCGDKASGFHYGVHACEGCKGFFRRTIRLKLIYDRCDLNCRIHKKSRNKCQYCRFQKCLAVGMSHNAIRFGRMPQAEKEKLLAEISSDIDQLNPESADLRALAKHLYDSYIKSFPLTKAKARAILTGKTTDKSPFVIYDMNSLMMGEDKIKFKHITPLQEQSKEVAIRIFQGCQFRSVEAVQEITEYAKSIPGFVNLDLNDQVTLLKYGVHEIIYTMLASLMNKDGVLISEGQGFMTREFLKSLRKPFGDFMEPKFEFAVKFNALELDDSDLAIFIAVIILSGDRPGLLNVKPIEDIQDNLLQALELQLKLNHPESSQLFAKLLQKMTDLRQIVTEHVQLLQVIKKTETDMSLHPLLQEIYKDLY
# Sequence (Q15596 whole entry, further chain): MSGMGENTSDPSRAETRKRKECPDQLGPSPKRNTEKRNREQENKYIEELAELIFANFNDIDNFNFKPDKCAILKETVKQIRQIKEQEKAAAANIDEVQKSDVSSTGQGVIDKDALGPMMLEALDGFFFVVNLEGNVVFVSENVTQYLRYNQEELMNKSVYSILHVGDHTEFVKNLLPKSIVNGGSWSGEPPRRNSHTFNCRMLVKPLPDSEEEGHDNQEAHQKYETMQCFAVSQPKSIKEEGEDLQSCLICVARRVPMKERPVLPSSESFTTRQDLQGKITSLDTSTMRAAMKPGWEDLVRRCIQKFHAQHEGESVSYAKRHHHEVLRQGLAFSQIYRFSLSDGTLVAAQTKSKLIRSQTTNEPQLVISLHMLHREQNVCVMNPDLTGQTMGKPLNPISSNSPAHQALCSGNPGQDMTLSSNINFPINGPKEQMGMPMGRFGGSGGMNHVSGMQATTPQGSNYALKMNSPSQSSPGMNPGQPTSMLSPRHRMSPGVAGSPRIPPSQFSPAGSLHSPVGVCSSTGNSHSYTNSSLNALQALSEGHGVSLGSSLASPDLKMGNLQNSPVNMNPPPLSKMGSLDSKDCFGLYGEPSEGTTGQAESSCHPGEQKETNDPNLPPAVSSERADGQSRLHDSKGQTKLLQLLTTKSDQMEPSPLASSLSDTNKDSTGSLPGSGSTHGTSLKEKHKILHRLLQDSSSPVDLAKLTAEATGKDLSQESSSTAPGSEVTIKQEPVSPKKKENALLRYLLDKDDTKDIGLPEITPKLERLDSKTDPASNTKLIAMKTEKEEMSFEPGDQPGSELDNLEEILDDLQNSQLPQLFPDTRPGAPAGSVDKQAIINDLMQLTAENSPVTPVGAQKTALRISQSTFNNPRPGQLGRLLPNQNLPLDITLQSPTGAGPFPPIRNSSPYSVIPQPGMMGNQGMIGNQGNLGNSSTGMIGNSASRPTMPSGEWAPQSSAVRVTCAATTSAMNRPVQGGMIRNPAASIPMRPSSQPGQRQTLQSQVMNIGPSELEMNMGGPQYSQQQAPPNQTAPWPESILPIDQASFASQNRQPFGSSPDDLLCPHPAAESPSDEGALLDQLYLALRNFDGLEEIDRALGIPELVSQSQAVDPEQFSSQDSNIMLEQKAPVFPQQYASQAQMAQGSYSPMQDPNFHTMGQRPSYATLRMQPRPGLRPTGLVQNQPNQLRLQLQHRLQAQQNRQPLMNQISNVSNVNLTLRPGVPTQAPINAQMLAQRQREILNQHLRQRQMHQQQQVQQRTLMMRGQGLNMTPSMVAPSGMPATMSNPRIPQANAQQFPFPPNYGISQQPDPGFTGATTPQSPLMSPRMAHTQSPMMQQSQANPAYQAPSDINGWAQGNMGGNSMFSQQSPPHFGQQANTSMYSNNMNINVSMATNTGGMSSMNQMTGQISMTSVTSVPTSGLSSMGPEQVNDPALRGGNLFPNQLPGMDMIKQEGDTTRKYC
# PROCEDURE TEXT: TR-FRET dose response biochemical High Throughput Screening assay for agonists of the steroid receptor coactivator 2 (SRC-2) recruitment by the peroxisome proliferator-activated receptor gamma (PPAR gamma): non-selective agonists. [Related pubchem assays: 1297, 1032 ]
# Format: functional
Calls of active or inactive are those of the source.

- COMPOUND: "COc1ccc(C2=NN(C(=N)S)C(c3ccccc3)C2)cc1 (configuration not stated)"
  EC50: "8.07 µM (active)"
- COMPOUND: "COc1ccc(CNC(=O)CSc2cc(=O)n(C)c3ccccc23)cc1"
  EC50: "> 79.4 µM (not active)"
- COMPOUND: "N#Cc1ccccc1CSc1ccc(-c2nc3ccccc3[nH]2)cn1"
  EC50: "> 79.4 µM (not active)"
- COMPOUND: "COc1ccc2c3nc4ccccc4c-3c(O)oc2c1"
  EC50: "8.33 µM (active)"
- COMPOUND: "O=C(Cc1ccccc1)Nc1nnc(-c2ccco2)s1"
  EC50: "> 79.4 µM (not active)"
- COMPOUND: "CCN(CC)S(=O)(=O)c1ccc(C(=O)NCc2ccc3c(c2)cc(C)n3C)cc1"
  EC50: "6.71 µM (active)"
- COMPOUND: "COCCCn1c(=S)[nH]c2sc3c(c2c1=O)CCCS3"
  EC50: "26.7 µM (not active)"

###

# MEASURED ON: Ubiquitin-conjugating enzyme E2 N (Homo sapiens)
# Sequence (P61088 whole entry): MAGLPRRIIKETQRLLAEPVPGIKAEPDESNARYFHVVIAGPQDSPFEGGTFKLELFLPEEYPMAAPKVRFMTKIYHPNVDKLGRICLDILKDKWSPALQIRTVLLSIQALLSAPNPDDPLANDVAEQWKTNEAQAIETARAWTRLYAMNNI
# Format: functional
Active and inactive are the calls of the source.
Outcome codes: true (1) for active, false (0) for inactive

- COMPOUND: "CN1CCN(Cc2nc3ccccc3c(=O)n2Cc2nc(-c3ccc([N+](=O)[O-])cc3)cs2)CC1"
  ASSIGNED CLASS: "false (0)"
- COMPOUND: "COc1cc(/C=N\\NC(=O)c2sc(N)nc2C)cc(OC)c1OC"
  ASSIGNED CLASS: "true (1)"
- COMPOUND: "C#CCOCCOCCOCCNc1nc(N2CCN(C(=O)[C@H](CCCCN)n3cc([C@@H](N)C(C)CC)nn3)CC2)nc(N2CCN(C(=O)[C@H](CCCCN)n3cc([C@@H](N)CC(C)C)nn3)CC2)n1 (some centres not stated)"
  ASSIGNED CLASS: "true (1)"
- COMPOUND: "C[C@@H]1CCCCCCCCC(=O)OCCN[C@H](C)CCCCCCCCC(=O)OCCN[C@H](C)CCCCCCCCC(=O)OCCN1"
  ASSIGNED CLASS: "false (0)"
- COMPOUND: "COc1ccc(-c2nn(-c3ccccc3)cc2/C=N/N=C(N)N)cc1OC"
  ASSIGNED CLASS: "false (0)"
- COMPOUND: "C#CCOCCOCCOCCNc1nc(N2CCOCC2)nc(N2CCN(C(=O)CCCCCCCCCCNC(=O)[C@@H]([C@H](C)CC)n3cc(CCCCCN)nn3)CC2)n1"
  ASSIGNED CLASS: "false (0)"
- COMPOUND: "CCOc1ccc(C(C(=O)NCC2CCCO2)N(C(=O)c2snc(C(N)=O)c2N)c2ccccc2F)cc1 (configuration not stated)"
  ASSIGNED CLASS: "false (0)"

###

# MEASURED ON: Fatty acid synthase (Homo sapiens)
# Sequence (P49327 whole entry, the tested form may be a part): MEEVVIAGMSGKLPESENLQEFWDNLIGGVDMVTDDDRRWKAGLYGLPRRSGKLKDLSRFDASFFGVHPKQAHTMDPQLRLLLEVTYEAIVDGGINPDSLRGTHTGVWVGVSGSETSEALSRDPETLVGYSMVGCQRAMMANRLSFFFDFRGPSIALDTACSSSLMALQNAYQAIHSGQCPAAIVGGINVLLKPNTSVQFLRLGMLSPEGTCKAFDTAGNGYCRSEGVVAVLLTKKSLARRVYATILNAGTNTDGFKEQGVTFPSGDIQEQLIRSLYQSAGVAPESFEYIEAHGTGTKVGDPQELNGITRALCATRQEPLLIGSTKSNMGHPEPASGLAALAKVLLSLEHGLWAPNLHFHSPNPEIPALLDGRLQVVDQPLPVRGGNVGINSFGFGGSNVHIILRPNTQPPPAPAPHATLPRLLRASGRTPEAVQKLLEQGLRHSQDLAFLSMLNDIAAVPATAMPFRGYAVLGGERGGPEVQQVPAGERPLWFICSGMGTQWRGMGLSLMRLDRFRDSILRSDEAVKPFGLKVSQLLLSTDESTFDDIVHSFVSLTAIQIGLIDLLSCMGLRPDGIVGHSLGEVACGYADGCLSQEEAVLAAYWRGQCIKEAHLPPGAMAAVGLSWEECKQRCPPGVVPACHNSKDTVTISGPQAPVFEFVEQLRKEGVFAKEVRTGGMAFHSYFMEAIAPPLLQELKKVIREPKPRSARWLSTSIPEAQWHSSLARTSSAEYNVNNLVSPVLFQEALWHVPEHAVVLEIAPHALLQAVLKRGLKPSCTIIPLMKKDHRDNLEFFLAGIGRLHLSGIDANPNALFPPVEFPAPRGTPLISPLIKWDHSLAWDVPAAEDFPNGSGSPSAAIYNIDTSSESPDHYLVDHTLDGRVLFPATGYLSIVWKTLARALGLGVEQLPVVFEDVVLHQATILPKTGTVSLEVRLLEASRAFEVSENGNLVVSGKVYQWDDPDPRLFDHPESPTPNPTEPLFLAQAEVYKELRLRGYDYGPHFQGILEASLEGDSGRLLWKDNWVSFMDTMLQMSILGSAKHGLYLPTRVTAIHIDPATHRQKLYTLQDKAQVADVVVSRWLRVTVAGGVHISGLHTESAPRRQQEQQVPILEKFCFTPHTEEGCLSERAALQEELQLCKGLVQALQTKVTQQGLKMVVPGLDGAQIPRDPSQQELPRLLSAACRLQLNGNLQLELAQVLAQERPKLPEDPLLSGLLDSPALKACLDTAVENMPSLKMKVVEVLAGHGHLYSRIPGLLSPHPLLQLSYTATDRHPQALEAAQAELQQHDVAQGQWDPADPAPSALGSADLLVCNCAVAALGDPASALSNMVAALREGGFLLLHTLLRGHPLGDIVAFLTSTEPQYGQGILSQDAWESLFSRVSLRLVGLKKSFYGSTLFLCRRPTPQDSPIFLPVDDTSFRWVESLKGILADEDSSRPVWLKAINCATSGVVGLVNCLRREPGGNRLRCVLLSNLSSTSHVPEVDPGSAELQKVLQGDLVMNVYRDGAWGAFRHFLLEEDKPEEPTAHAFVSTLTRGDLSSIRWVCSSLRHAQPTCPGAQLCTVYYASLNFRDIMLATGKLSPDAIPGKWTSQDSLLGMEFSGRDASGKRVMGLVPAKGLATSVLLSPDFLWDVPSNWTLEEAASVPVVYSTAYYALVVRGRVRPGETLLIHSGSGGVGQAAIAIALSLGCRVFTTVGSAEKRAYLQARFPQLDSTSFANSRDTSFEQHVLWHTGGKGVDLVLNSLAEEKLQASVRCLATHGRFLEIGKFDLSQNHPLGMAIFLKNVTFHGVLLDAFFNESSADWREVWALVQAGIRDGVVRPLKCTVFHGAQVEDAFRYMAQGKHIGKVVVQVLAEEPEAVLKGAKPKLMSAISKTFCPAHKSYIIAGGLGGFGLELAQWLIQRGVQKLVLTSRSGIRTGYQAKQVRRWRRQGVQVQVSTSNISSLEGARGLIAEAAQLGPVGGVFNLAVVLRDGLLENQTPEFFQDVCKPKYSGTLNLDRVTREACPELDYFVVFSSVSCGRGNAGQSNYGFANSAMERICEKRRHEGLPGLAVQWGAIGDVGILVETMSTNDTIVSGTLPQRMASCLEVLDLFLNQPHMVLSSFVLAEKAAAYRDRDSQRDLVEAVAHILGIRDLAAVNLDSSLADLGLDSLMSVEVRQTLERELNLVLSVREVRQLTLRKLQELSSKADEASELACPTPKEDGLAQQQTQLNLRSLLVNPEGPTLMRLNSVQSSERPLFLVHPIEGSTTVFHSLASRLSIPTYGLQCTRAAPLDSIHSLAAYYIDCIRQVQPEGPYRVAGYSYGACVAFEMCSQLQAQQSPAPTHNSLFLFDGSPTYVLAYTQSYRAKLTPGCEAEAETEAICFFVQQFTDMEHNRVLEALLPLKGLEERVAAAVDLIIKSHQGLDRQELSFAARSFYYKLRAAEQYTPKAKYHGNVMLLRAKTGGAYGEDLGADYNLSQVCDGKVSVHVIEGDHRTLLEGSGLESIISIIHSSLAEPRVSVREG
# PROCEDURE TEXT: FAS thioesterase domain inhibitors, dose response, biochemical, kinetic fluorescence intensity (AID 624326);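 note: rate of fluorescence rise from hydrolysis of a fluorogenic O-methyl fluorescein ester substrate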
# Type: functional
Active and inactive are the calls of the source.
Outcome codes: True (active), False (inactive)

- STRUCTURE AS SMILES: "C/C(=N\\Nc1ccc(C(=O)O)cc1)c1ccc2c(c1)Nc1ccccc1S2"
  ASSIGNED CLASS: "True"
- STRUCTURE AS SMILES: "CN(CCO)c1cc(NCCCN2CCC(Cc3ccccc3)CC2)c2nonc2c1[N+](=O)[O-]"
  ASSIGNED CLASS: "True"
- STRUCTURE AS SMILES: "O=C(Nc1cccc(C(=O)O)c1)/C(=C/c1cccc([N+](=O)[O-])c1)NC(=O)c1cccc(Br)c1"
  ASSIGNED CLASS: "True"
- STRUCTURE AS SMILES: "COc1cccc(-n2c(CN3CCN(c4ccccc4)CC3)nc3ccc([N+](=O)[O-])cc3c2=O)c1"
  ASSIGNED CLASS: "True"
- STRUCTURE AS SMILES: "C[C@@]12C(=O)Nc3cc(F)ccc3C(=O)N1[C@H]1c3ccccc3OC[C@@H]1[C@@H]2c1ccccc1"
  ASSIGNED CLASS: "False"
- STRUCTURE AS SMILES: "Cc1c(C(=O)OCCOc2ccc(Br)cc2)sc(=S)n1C"
  ASSIGNED CLASS: "True"
- STRUCTURE AS SMILES: "CC1(C)CC(=O)C=C(c2ccc(-c3cnn(Cc4ccccc4)c3)cc2)C1=O"
  ASSIGNED CLASS: "True"
